# Test system: T47D
# assay.comment: NCI tumour cell line growth inhibition, 48 h
The source made the active and inactive calls. Cut-off read from the data, not from the text of the source: active = GI50 up to about 1.1 µM and inactive = higher.
measure.name: GI50

The molecule `O=C(O)c1nc2ccc(C(F)(F)F)cc2nc1NCc1ccc(F)cc1` on T47D: GI50 was 20.8 µM (inactive)

The molecule `O=c1[nH]nc(-c2ccccc2)n1-c1cccc([N+](=O)[O-])c1` on T47D: GI50 was > 100 µM (inactive)

The molecule `CN1C(Cl)=NS(=O)(=O)c2ccccc21` on T47D: GI50 was > 100 µM (inactive)

The molecule `CCOC(=O)c1c(N2CCN(C)CC2)[nH]c(=O)c(C(c2c(Cl)cccc2Cl)c2c(O)c(C(=O)OCC)c(N3CCN(C)CC3)[nH]c2=O)c1O` on T47D: GI50 was 16.5 µM (inactive)

The molecule `Cc1ccc(C(CCO)CCO)nc1` on T47D: GI50 was > 100 µM (inactive)

The molecule O=C1/C(=C/c2ccccc2)N=C(c2ccccc2)N1C1Nc2cc3c(cc2S1)NC(N1C(=O)/C(=C/c2ccccc2)N=C1c1ccccc1)S3 (centres undefined) on T47D: GI50 was 30.4 µM (inactive)

The molecule `Cc1cc(-c2ccc(C(=O)C(c3ccccc3)(c3ccccc3)c3ccccc3)[nH]2)on1` on T47D: GI50 was 37.8 µM (inactive)

The molecule `CN(C)CCCNc1ccc2nnn3c4ccc(OC(=O)c5ccccc5)cc4c(=O)c1c23` on T47D: GI50 was 18.7 µM (inactive)

The molecule `CC[n+]1[b-](C(C)(C)C)n(/N=C(\C)C(C)(C)C)[b-](C(C)(C)C)[n+]1CC` on T47D: GI50 was > 100 µM (inactive)
